Value source: patent US20210332145A1

Would you mind telling me the reported EC50 of each entry?
- target-system: T1, human BCMA with a His tag (ACROBiosystems, Catalog No.: BCA-H522y) (human)
- T1 construct: Bought His-tagged recombinant protein; also called huBCMA-His; Recombinant human BCMA
- T1 chain: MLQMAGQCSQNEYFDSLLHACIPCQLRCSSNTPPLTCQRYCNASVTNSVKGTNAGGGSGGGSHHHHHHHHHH
- method-notes: ELISA, plate-coated human BCMA-His
Reply with the number, then its unit.

Study these solved cases before continuing.
binder: SCT-Aa03(m/m) (antibody, V domains shown, Full IgG format: mouse IgG1 heavy chain constant region, mouse kappa light chain constant region) VH: EVKLLQSGGGLVQPGGSLKLSCAASGIDFSRYWMSWVRRAPGKGLEWIGEINPDSSTINYAPSLKDKFIISRDNAKNTLYLQMSKVRSEDTALYYCASFYYDYDHAMDYWGQGTSVTVSS VL: DIVMTQSQKFMSTSVGDRFSVTCKASQNVGTNVAWYQQKPGQSPKALIYSASYRFSGVPDRFTGSGSGTDFTLTISNVQSEDLAEYFCQQYNSYPFTFGSGTKLEIK
EC50: 1.71 ng/mL
//
binder: SCT-Aa01(m/m) (antibody, V domains shown, Full IgG format: mouse IgG1 heavy chain constant region, mouse kappa light chain constant region) VH: DVQLQESGPGLVKPSQSLSLTCSVTGYSITSGYYWNWIRQFPGNKLEWMGYIRYDGSNNYNPSLKNRISITRDTSKNQFFLKLNSVTTEDTATYYCAPYDYDYAMDFWGQGTSVTVSS VL: DIQMTQSPASLSASVGETVTITCRASGNIHNYLAWYQQKQGKSPQLLVYNAKTLAHGVPSRFSGSGSGTQYSLKITSLQPEDFGTYYCQHFWSTPFTFGSGTKLEIK
EC50: 2.92 ng/mL

Turning to the following binder.
Given the binder SCT-Aa05(m/m) (antibody, V domains shown, Full IgG format: mouse IgG1 heavy chain constant region, mouse kappa light chain constant region) VH: EVKLLQSGGGLVQPGGSLKLSCAASGIDFSRYWMSWVRRAPGKGLEWIGEINPDSSTINYAPSLKDKFIISRDNAKNTLYLQMSKVRSEDTGLYYCASLYYDYEREYGMDYWGQGTSVTVSS VL: DIVMTQSQKFMSTSVGDRVSVTCKASQNVGTNVAWYQQKPGQSPKALIYSASYRFSGVPDRFTGSGSGTDFTLTISNVQSEDLAEYFCQQYNSYPYTFGGGTKLEIK , write its reported EC50. 2.12 ng/mL
